Sequence of the target: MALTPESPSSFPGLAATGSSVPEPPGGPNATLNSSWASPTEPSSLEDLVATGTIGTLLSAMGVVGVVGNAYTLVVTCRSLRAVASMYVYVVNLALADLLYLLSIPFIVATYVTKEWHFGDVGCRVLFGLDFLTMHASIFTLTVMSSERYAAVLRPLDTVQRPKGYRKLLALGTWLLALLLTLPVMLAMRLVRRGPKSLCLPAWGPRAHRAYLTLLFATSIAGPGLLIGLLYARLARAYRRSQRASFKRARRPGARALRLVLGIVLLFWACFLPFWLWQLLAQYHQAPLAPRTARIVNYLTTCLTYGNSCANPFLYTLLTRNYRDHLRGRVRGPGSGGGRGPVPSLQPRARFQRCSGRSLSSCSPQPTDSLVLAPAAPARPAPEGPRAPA
Reported Ki values for the following molecules.

                                   molecule  measured_metric   result
0  CC(C)C[C@H](NC(=O)c1cc2ccccc2s1)C(=O)NC1CCN(Cc2ccc(OCCCN(C)C)cc2)C1 (single isomer, unassigned; 2b)               Ki  > 10 µM
1  CN(C)CCCOc1ccc(CN2CC[C@H](NC(=O)c3cccs3)C2)cc1               Ki  > 10 µM

Turning now to a further record.
Note Ki for the molecule shown: COc1ccc(C(=O)N[C@H]2CCN(Cc3ccc(OCCCN(C)C)cc3)C2)cc1OC
> 10 µM
